The following compounds are shown together with reported IC50 values.
Tested on: HUVEC
protocolDescription: Antiproliferative against HUVEC after 48 hrs by MTT assay
runParameters: Homo sapiens
Report the value in µM with no unit label.

Field: example entries. Status: answers known.
Exercise: Specify measured IC50 for `Fc1ccc(/C=C/c2nnc(-c3ccc4c(c3)OCCO4)o2)cc1` .
Solution: 4.96

Exercise: Specify measured IC50 for `Fc1ccccc1/C=C/c1nnc(-c2ccc3c(c2)OCCO3)o1` .
Solution: 1.16

Exercise: Specify measured IC50 for `Cc1ccc(/C=C/c2nnc(-c3ccc4c(c3)OCCO4)o2)cc1` .
Solution: 45.2

Exercise: Specify measured IC50 for `Brc1ccc(/C=C/c2nnc(-c3ccc4c(c3)OCCO4)o2)cc1` .
Solution: 22.3

Exercise: Specify measured IC50 for `Brc1ccccc1/C=C/c1nnc(-c2ccc3c(c2)OCCO3)o1` .
Solution: 8.89

Exercise: Specify measured IC50 for `Fc1cccc(/C=C/c2nnc(-c3ccc4c(c3)OCCO4)o2)c1` .
Solution: 3.53

Exercise: Specify measured IC50 for `O=[N+]([O-])c1ccccc1/C=C/c1nnc(-c2ccc3c(c2)OCCO3)o1` .
Solution: 25

# ---- query compound ----
Exercise: Specify measured IC50 for CO[C@@H]1[C@H](OC(=O)NC(=O)CCl)CC[C@]2(CO2)[C@H]1[C@@]1(C)O[C@@H]1CC=C(C)C [O-CHLOROACETYLCARBAMOYLFUMAGILLOL] .
Solution: 1.96

* * *

protocolDescription: Cytotoxicity against HUVEC after 24 hrs by MTT assay
Type: cell-based
runParameters: human, HUVEC cells
testReadout: CC50 at 24 h (µM)
Report the value in µM with no unit label.

Field: example entries. Status: answers known.
Exercise: Specify measured CC50 at 24 h for `O=[N+]([O-])c1ccc(/C=C/c2nnc(-c3ccc4c(c3)OCCO4)o2)cc1` .
Solution: 299

Exercise: Specify measured CC50 at 24 h for `Brc1cccc(/C=C/c2nnc(-c3ccc4c(c3)OCCO4)o2)c1` .
Solution: 322

Exercise: Specify measured CC50 at 24 h for `Fc1cccc(/C=C/c2nnc(-c3ccc4c(c3)OCCO4)o2)c1` .
Solution: 295

Exercise: Specify measured CC50 at 24 h for `Brc1ccccc1/C=C/c1nnc(-c2ccc3c(c2)OCCO3)o1` .
Solution: 287

Exercise: Specify measured CC50 at 24 h for `Clc1ccccc1/C=C/c1nnc(-c2ccc3c(c2)OCCO3)o1` .
Solution: 368

Further cases:
Exercise: Specify measured CC50 at 24 h for `Fc1ccc(/C=C/c2nnc(-c3ccc4c(c3)OCCO4)o2)cc1` .
Solution: 325

Exercise: Specify measured CC50 at 24 h for `COc1cccc(/C=C/c2nnc(-c3ccc4c(c3)OCCO4)o2)c1` .
Solution: 332

Exercise: Specify measured CC50 at 24 h for `O=[N+]([O-])c1ccccc1/C=C/c1nnc(-c2ccc3c(c2)OCCO3)o1` .
Solution: 323

Exercise: Specify measured CC50 at 24 h for `C(=C\c1nnc(-c2ccc3c(c2)OCCO3)o1)/c1ccccc1` .
Solution: 209

Exercise: Specify measured CC50 at 24 h for `Brc1ccc(/C=C/c2nnc(-c3ccc4c(c3)OCCO4)o2)cc1` .
Solution: 491

Exercise: Specify measured CC50 at 24 h for `Clc1ccc(/C=C/c2nnc(-c3ccc4c(c3)OCCO4)o2)cc1` .
Solution: 312

* * *

protocolDescription: Cytotoxicity against HUVEC after 24 hrs by MTT assay
Assay type: cell-based
runParameters: human, HUVEC cells
The following molecules are shown together with reported CC50 at 24 h values.
Mention the unit after the number when you answer.

Field: example entries. Status: answers known.
Exercise: Specify measured CC50 at 24 h for `NNC(=O)c1ccc2c(c1)OCCO2` .
Solution: 200 µM

Exercise: Specify measured CC50 at 24 h for `Cc1ccccc1/C=C/c1nnc(-c2ccc3c(c2)OCCO3)o1` .
Solution: 356 µM

Exercise: Specify measured CC50 at 24 h for `COc1ccc(/C=C/c2nnc(-c3ccc4c(c3)OCCO4)o2)cc1` .
Solution: 312 µM

Exercise: Specify measured CC50 at 24 h for `Cc1cccc(/C=C/c2nnc(-c3ccc4c(c3)OCCO4)o2)c1` .
Solution: 201 µM

Exercise: Specify measured CC50 at 24 h for `Cc1ccc(/C=C/c2nnc(-c3ccc4c(c3)OCCO4)o2)cc1` .
Solution: 265 µM

Exercise: Specify measured CC50 at 24 h for `Fc1ccccc1/C=C/c1nnc(-c2ccc3c(c2)OCCO3)o1` .
Solution: 402 µM

# ---- query molecule ----
Exercise: Specify measured CC50 at 24 h for `O=[N+]([O-])c1cccc(/C=C/c2nnc(-c3ccc4c(c3)OCCO4)o2)c1` .
Solution: 309 µM

FYI, the data here is from ChEMBL document CHEMBL2380264.
